system: 777334-354-R2-J4-PDC tumor spheroids with HUVEC/MSC, viability; experiment: Anticancer human tumor 777334-354-R2-J4-PDC patient-derived pancreatic adenocarcinoma cell line growth inhibition [GQUAD]; settings: second compound 0.316 µM; first compound 0.0316 µM; stronger effect = lower value
Parameter class (string): assigned from measured viability, T/C. Ranges: b0 (below 80%), b1 (80% to below 90%), b2 (90% or more)

{"compound": "C#Cc1c(F)ccc2cc(O)cc(-c3ncc4c(N5CC6CCC(C5)N6)nc(OCC56CCCN5CC(F)C6)nc4c3F)c12 (stereo not given) + CN(C)c1ccc(Nc2c3ccc(NC(=O)CCN4CCCC4)cc3nc3cc(NC(=O)CCN4CCCC4)ccc23)cc1", "assigned-category": "b0"}
{"compound": "COc1cc(C2c3cc4c(cc3C(OC3OC5COC(C)OC5C(O)C3O)C3COC(=O)C23)OCO4)cc(OC)c1O (stereo not given) + Cc1[nH]c2ccc(F)cc2c1-c1nc2c3cccnc3c3ncccc3c2[nH]1", "assigned-category": "b0"}
{"compound": "C=CCn1c(=O)c2cnc(Nc3ccc(N4CCN(C)CC4)cc3)nc2n1-c1cccc(C(C)(C)O)n1 + Cc1[nH]c2ccc(F)cc2c1-c1nc2c3cccnc3c3ncccc3c2[nH]1", "assigned-category": "b2"}
{"compound": "CCc1c2c(nc3ccc(O)cc13)-c1cc3c(c(=O)n1C2)COC(=O)[C@]3(O)CC + Cc1cnc(CNC(=O)c2c(=O)c3ccc(N4CCCN(C)CC4)nc3n3c2sc2ccccc23)cn1", "assigned-category": "b0"}
{"compound": "C=CCn1c(=O)c2cnc(Nc3ccc(N4CCN(C)CC4)cc3)nc2n1-c1cccc(C(C)(C)O)n1 + Cc1cnc(CNC(=O)c2c(=O)c3ccc(N4CCCN(C)CC4)nc3n3c2sc2ccccc23)cn1", "assigned-category": "b0"}
{"compound": "COc1ncnc(C2CC2)c1-c1ncc2cnn(Cc3ccc(-c4nc(C(F)(F)F)cn4C(C)C)cc3)c2n1 + Cc1cnc(CNC(=O)c2c(=O)c3ccc(N4CCCN(C)CC4)nc3n3c2sc2ccccc23)cn1", "assigned-category": "b1"}
{"compound": "COc1ncnc(C2CC2)c1-c1ncc2cnn(Cc3ccc(-c4nc(C(F)(F)F)cn4C(C)C)cc3)c2n1 + CN(C)c1ccc(Nc2c3ccc(NC(=O)CCN4CCCC4)cc3nc3cc(NC(=O)CCN4CCCC4)ccc23)cc1", "assigned-category": "b2"}
{"compound": "Cc1cccc(N(C)C(=O)C2C(O)CCN2c2nc(C)cc(C(F)(F)F)c2C#N)c1 (stereo not given) + Cc1cnc(CNC(=O)c2c(=O)c3ccc(N4CCCN(C)CC4)nc3n3c2sc2ccccc23)cn1", "assigned-category": "b1"}
{"compound": "CC1COCCN1c1cc(C2(O)CC3CCC(C2)O3)c2cnn(-c3ccn[nH]3)c2n1 (stereo not given) + Cc1[nH]c2ccc(F)cc2c1-c1nc2c3cccnc3c3ncccc3c2[nH]1", "assigned-category": "b1"}
{"compound": "CC1COCCN1c1cc(-c2ccnn2C)c2ccnc(-c3ccn[nH]3)c2n1 (stereo not given) + CN(C)c1ccc(Nc2c3ccc(NC(=O)CCN4CCCC4)cc3nc3cc(NC(=O)CCN4CCCC4)ccc23)cc1", "assigned-category": "b2"}
{"compound": "O=C(NO)c1cnc(N2CCN(S(=O)(=O)c3ccc4ccccc4c3)CC2)nc1 + Cc1cnc(CNC(=O)c2c(=O)c3ccc(N4CCCN(C)CC4)nc3n3c2sc2ccccc23)cn1", "assigned-category": "b0"}
{"compound": "COc1cccc2c1C(=O)c1c(O)c3c(c(O)c1C2=O)CC(O)(C(=O)CO)CC3OC1CC(N)C(O)C(C)O1 (stereo not given) + CN(C)c1ccc(Nc2c3ccc(NC(=O)CCN4CCCC4)cc3nc3cc(NC(=O)CCN4CCCC4)ccc23)cc1", "assigned-category": "b2"}
{"compound": "CC1COCCN1c1cc(C2(S(C)(=N)=O)CC2)nc(-c2ccnc3[nH]ccc23)n1 (stereo not given) + Cc1[nH]c2ccc(F)cc2c1-c1nc2c3cccnc3c3ncccc3c2[nH]1", "assigned-category": "b2"}
{"compound": "COc1ncnc(C2CC2)c1-c1ncc2cnn(Cc3ccc(-c4nc(C(F)(F)F)cn4C(C)C)cc3)c2n1 + Cc1[nH]c2ccc(F)cc2c1-c1nc2c3cccnc3c3ncccc3c2[nH]1", "assigned-category": "b2"}
{"compound": "Cc1[nH]c2ccccc2c1CCNCc1ccc(/C=C/C(=O)NO)cc1 + Cc1cnc(CNC(=O)c2c(=O)c3ccc(N4CCCN(C)CC4)nc3n3c2sc2ccccc23)cn1", "assigned-category": "b0"}
{"compound": "O=c1[nH]cc(F)c(=O)[nH]1 + Cc1cnc(CNC(=O)c2c(=O)c3ccc(N4CCCN(C)CC4)nc3n3c2sc2ccccc23)cn1", "assigned-category": "b1"}
{"compound": "Cn1ncnc1[C@H]1c2n[nH]c(=O)c3cc(F)cc(c23)N[C@@H]1c1ccc(F)cc1 + Cc1[nH]c2ccc(F)cc2c1-c1nc2c3cccnc3c3ncccc3c2[nH]1", "assigned-category": "b1"}

---

test system: 777334-354-R2-J4-PDC tumor spheroids with HUVEC/MSC, viability; assay: Anticancer human tumor 777334-354-R2-J4-PDC cell line growth inhibition [GQUAD]; conditions: second compound 0.0316 µM; first compound 0.1 µM; stronger effect = lower value;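 note: spheroids exposed to compounds for 7 days before readout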
observed-property: viability, T/C (%)

{"molecule": "COc1ncnc(C2CC2)c1-c1ncc2cnn(Cc3ccc(-c4nc(C(F)(F)F)cn4C(C)C)cc3)c2n1 + CN(C)c1ccc(Nc2c3ccc(NC(=O)CCN4CCCC4)cc3nc3cc(NC(=O)CCN4CCCC4)ccc23)cc1", "quantitative-result": 94.8}
{"molecule": "CC(C)n1c(=O)n(C)c2cnc3cc(F)c(-c4ccc(OCCCN5CCCCC5)nc4)cc3c21 + CN(C)c1ccc(Nc2c3ccc(NC(=O)CCN4CCCC4)cc3nc3cc(NC(=O)CCN4CCCC4)ccc23)cc1", "quantitative-result": 94.4}
{"molecule": "CC1COCCN1c1cc(C2(O)CC3CCC(C2)O3)c2cnn(-c3ccn[nH]3)c2n1 (stereo not given) + Cc1cnc(CNC(=O)c2c(=O)c3ccc(N4CCCN(C)CC4)nc3n3c2sc2ccccc23)cn1", "quantitative-result": 46.6}
{"molecule": "CC1COCCN1c1cc(-c2ccnn2C)c2ccnc(-c3ccn[nH]3)c2n1 (stereo not given) + Cc1[nH]c2ccc(F)cc2c1-c1nc2c3cccnc3c3ncccc3c2[nH]1", "quantitative-result": 74.2}
{"molecule": "CC(C)(O)C1CCC(Nc2ccc3ncc(-c4cccc(C(F)(F)F)c4)n3n2)CC1 (stereo not given) + CN(C)c1ccc(Nc2c3ccc(NC(=O)CCN4CCCC4)cc3nc3cc(NC(=O)CCN4CCCC4)ccc23)cc1", "quantitative-result": 90.2}

---

Tested on: 777334-354-R2-J4-PDC tumor spheroids with HUVEC/MSC, viability
Experiment: Anticancer human tumor 777334-354-R2-J4-PDC cell line growth inhibition [GQUAD];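 note: spheroids exposed to compounds for 7 days before readout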
Conditions: second compound 1 µM; first compound 10 µM; stronger effect = lower value
Description: DNA G-quadruplex Stabilizer Agents in Combinations in Complex Spheroids A high-throughput screen of multi-cell type tumor spheroids was designed to identify active combinations of DNA G-quadruplex stabilizer agents and targeted small molecules. […] Compounds. […] If the clinical Cmax for an agent had not been determined, the highest concentration tested was 10 microM. […]
viability, T/C vs 40%: less than gives yes; not less than gives no.

{"compound": "O=C(NO)c1cnc(N2CCN(S(=O)(=O)c3ccc4ccccc4c3)CC2)nc1 + CN(C)c1ccc(Nc2c3ccc(NC(=O)CCN4CCCC4)cc3nc3cc(NC(=O)CCN4CCCC4)ccc23)cc1", "assigned-category": "yes"}
{"compound": "C#Cc1c(F)ccc2cc(O)cc(-c3ncc4c(N5CC6CCC(C5)N6)nc(OCC56CCCN5CC(F)C6)nc4c3F)c12 (centres undefined) + Cc1cnc(CNC(=O)c2c(=O)c3ccc(N4CCCN(C)CC4)nc3n3c2sc2ccccc23)cn1", "assigned-category": "yes"}
{"compound": "COc1ncnc(C2CC2)c1-c1ncc2cnn(Cc3ccc(-c4nc(C(F)(F)F)cn4C(C)C)cc3)c2n1 + CN(C)c1ccc(Nc2c3ccc(NC(=O)CCN4CCCC4)cc3nc3cc(NC(=O)CCN4CCCC4)ccc23)cc1", "assigned-category": "no"}
{"compound": "COc1cc(C2c3cc4c(cc3C(OC3OC5COC(C)OC5C(O)C3O)C3COC(=O)C23)OCO4)cc(OC)c1O (centres undefined) + Cc1[nH]c2ccc(F)cc2c1-c1nc2c3cccnc3c3ncccc3c2[nH]1", "assigned-category": "yes"}
{"compound": "O=c1[nH]cc(F)c(=O)[nH]1 + Cc1cnc(CNC(=O)c2c(=O)c3ccc(N4CCCN(C)CC4)nc3n3c2sc2ccccc23)cn1", "assigned-category": "no"}
{"compound": "O=C(c1cc(Cc2n[nH]c(=O)c3ccccc23)ccc1F)N1CCN(C(=O)C2CC2)CC1 + Cc1cnc(CNC(=O)c2c(=O)c3ccc(N4CCCN(C)CC4)nc3n3c2sc2ccccc23)cn1", "assigned-category": "no"}
{"compound": "COc1cccc2c1C(=O)c1c(O)c3c(c(O)c1C2=O)CC(O)(C(=O)CO)CC3OC1CC(N)C(O)C(C)O1 (centres undefined) + Cc1[nH]c2ccc(F)cc2c1-c1nc2c3cccnc3c3ncccc3c2[nH]1", "assigned-category": "yes"}
